measurement_notes: Cell Viability - LYMP2-023 (AID 975);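 also: cells exposed to compound for 24 hours at 37 °C; nearly all actives have a fitted effect of over 55% in size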
reported_conditions: LYMP2-023 lymphoblastoid cell viability; series mostly up to 92.2 µM
Results filed as inconclusive are left out. Activity calls are given as the source filed them. Calls follow the shape of the dose curve; as a rule, active = well fitted cell-killing curve with a large enough effect; inconclusive = small, poorly fitted or top-dose-only effect; inactive = flat fitted curve, though single readings scatter.
Labels: active, inactive

[
  {
    "compound": "COc1cc(/C=C/c2ccccc2)oc(=O)c1",
    "answer_label": "inactive"
  },
  {
    "compound": "O=C(O)c1ccc(O)cc1O",
    "answer_label": "inactive"
  },
  {
    "compound": "O=C1CCc2ccccc2O1",
    "answer_label": "inactive"
  },
  {
    "compound": "Cc1ccc([N+](=O)[O-])c(C)c1",
    "answer_label": "inactive"
  },
  {
    "compound": "c1ccc2c(c1)[nH]c1ccccc12",
    "answer_label": "inactive"
  },
  {
    "compound": "CCO",
    "answer_label": "inactive"
  },
  {
    "compound": "CC(C)=CCCC(C)CCO (stereo not drawn)",
    "answer_label": "inactive"
  },
  {
    "compound": "O=NO",
    "answer_label": "inactive"
  },
  {
    "compound": "COCC(=O)O",
    "answer_label": "inactive"
  },
  {
    "compound": "Clc1cc(Cl)c(Cl)c(Cl)c1Cl",
    "answer_label": "inactive"
  },
  {
    "compound": "CC12CCC(CC1=O)C2(C)C (stereo not drawn)",
    "answer_label": "inactive"
  },
  {
    "compound": "c1ccc2scnc2c1",
    "answer_label": "inactive"
  },
  {
    "compound": "C=CC(=C)CCC=C(C)C",
    "answer_label": "inactive"
  },
  {
    "compound": "O=C(O)c1ccccc1",
    "answer_label": "inactive"
  },
  {
    "compound": "O=[N+]([O-])c1cccc(Cl)c1Cl",
    "answer_label": "inactive"
  },
  {
    "compound": "CCO[Si](CCCN)(OCC)OCC",
    "answer_label": "inactive"
  },
  {
    "compound": "O[C@@H]([C@H](O)[C@@H](O)CBr)[C@@H](O)CBr",
    "answer_label": "inactive"
  },
  {
    "compound": "CN(C)CCCCCCN(C)C",
    "answer_label": "inactive"
  },
  {
    "compound": "CCC(O)OC(O)CC (stereo not drawn)",
    "answer_label": "inactive"
  },
  {
    "compound": "C1OCOCO1",
    "answer_label": "inactive"
  },
  {
    "compound": "CN(C)C=O",
    "answer_label": "inactive"
  },
  {
    "compound": "O=C(/C=C/c1ccc(O)c(O)c1)O[C@@H](C(=O)O)[C@@H](OC(=O)/C=C/c1ccc(O)c(O)c1)C(=O)O",
    "answer_label": "inactive"
  },
  {
    "compound": "CCC(C)c1ccccc1O (stereo not drawn)",
    "answer_label": "inactive"
  },
  {
    "compound": "COc1ccc2nc(N)sc2c1",
    "answer_label": "inactive"
  },
  {
    "compound": "COc1c2ccoc2cc2oc(=O)ccc12",
    "answer_label": "inactive"
  },
  {
    "compound": "CCCCCCCCCCCCCC(=O)O",
    "answer_label": "inactive"
  },
  {
    "compound": "Nc1ccc(S(=O)(=O)O)cc1",
    "answer_label": "inactive"
  },
  {
    "compound": "CC1=C2[C@H](/C=C(\\C)C(=O)O)CC[C@@H](C)[C@H]2CC1",
    "answer_label": "inactive"
  },
  {
    "compound": "Cc1ccc(N)c([N+](=O)[O-])c1",
    "answer_label": "inactive"
  },
  {
    "compound": "Cc1c(N=C=O)cccc1N=C=O",
    "answer_label": "inactive"
  },
  {
    "compound": "NC1=NC(S)C2N=CN=C2N1 (stereo not drawn)",
    "answer_label": "active"
  },
  {
    "compound": "Cc1cccc([N+](=O)[O-])c1C",
    "answer_label": "inactive"
  },
  {
    "compound": "c1ccc2c(c1)c1cccc3ccc4cccc2c4c31",
    "answer_label": "inactive"
  }
]

###

target_entity: Rap guanine nucleotide exchange factor 4 (Homo sapiens)
measurement_notes: Confirmatory qHTS for antagonist of cAMP-regulated guanine nucleotide exchange factor 4 (EPAC2) (AID 1645885); also: nearly all actives have a fitted effect of over 25% in size
reported_conditions: EPAC2 Rap1B-BODIPY-GDP exchange fluorescence, biochemical; series mostly up to 12.7 µM
Inconclusive results are not listed. Calls of active or inactive are those of the source. Calls follow the shape of the dose curve; as a rule, active = well fitted inhibition curve with a large enough effect; inconclusive = small, poorly fitted or top-dose-only effect; inactive = no such curve, though single readings can be large or run the other way.
Labels: yes (active), no (inactive)

[
  {
    "molecule": "C=CCOc1ccc(C2N3CC4(CC)CN2CC(CC)(C3)C4=O)cc1 (centres undefined)",
    "answer_label": "no"
  },
  {
    "molecule": "Oc1ccc2ccccc2c1C=Nc1ccc(Cl)cn1",
    "answer_label": "no"
  },
  {
    "molecule": "COC(=O)c1ccc2nc(-c3ccccc3)c(Cc3cccc(F)c3)n2c1",
    "answer_label": "no"
  },
  {
    "molecule": "COc1ccc(OC)c(NC(=O)C(C)Oc2ccc(Br)cc2)c1 (centres undefined)",
    "answer_label": "no"
  },
  {
    "molecule": "COc1ccc(NC(=O)CSc2nc3sc4c(c3c(=O)n2-c2ccc(OC)cc2)CCN(C)C4)cc1",
    "answer_label": "no"
  },
  {
    "molecule": "Cc1cc(C)n(CCOc2ccc(Br)cc2)n1",
    "answer_label": "no"
  },
  {
    "molecule": "CCOc1cnc(-c2c(-c3c(Cl)cccc3Cl)noc2C)o1",
    "answer_label": "no"
  },
  {
    "molecule": "Cc1ccccc1C(=O)Nc1sc2c(c1C(=O)N1CCCCC1)CCC(C)C2 (centres undefined)",
    "answer_label": "no"
  },
  {
    "molecule": "O=C(Nc1cc(S(=O)(=O)Nc2ccc(Cl)cc2)ccc1O)c1ccc(S(=O)(=O)N2CCCCCC2)cc1",
    "answer_label": "no"
  },
  {
    "molecule": "CC1CC1c1ccc(/C=C(\\C#N)C(=O)Nc2ccc(Cl)cc2)o1 (centres undefined)",
    "answer_label": "no"
  },
  {
    "molecule": "CC(C)(C)c1ccc(C(=O)NCC2CCCN2S(=O)(=O)c2ccccc2)cc1 (centres undefined)",
    "answer_label": "no"
  },
  {
    "molecule": "Cc1oc2cc(Br)c(O)c(Br)c2c1C(=O)c1ccccc1",
    "answer_label": "no"
  },
  {
    "molecule": "O=C(NNC(=O)c1ccccc1F)c1cccc(-n2cccc2)c1",
    "answer_label": "no"
  },
  {
    "molecule": "Cc1[nH]c2ccc(C(=O)OC(C)C(=O)N(C)c3ccccc3)cc2c1C (centres undefined)",
    "answer_label": "no"
  },
  {
    "molecule": "O=C1N(Cc2ccccc2Cl)c2ccccc2C1(O)c1c[nH]c2ccccc12 (centres undefined)",
    "answer_label": "no"
  },
  {
    "molecule": "CC(OC(=O)/C(C#N)=C/c1ccc(N(C)C)cc1)C(=O)N(C)Cc1ccccc1 (centres undefined)",
    "answer_label": "no"
  },
  {
    "molecule": "CCc1nnc(NS(=O)(=O)c2ccc(NCc3cc(Cl)ccc3O)cc2)s1",
    "answer_label": "no"
  },
  {
    "molecule": "Cc1ccc(C)c(S(=O)(=O)N2CCN(C(=O)CCNC(=O)c3ccc(Br)cc3)CC2)c1",
    "answer_label": "no"
  },
  {
    "molecule": "Oc1ccc(NCc2ccccc2OCc2ccccc2F)cc1",
    "answer_label": "no"
  },
  {
    "molecule": "CSC1=NSC2=NC(=O)/C(=C/c3coc4ccccc4c3=O)C(=N)N12",
    "answer_label": "no"
  },
  {
    "molecule": "Cc1nn(-c2ccccc2)c(Cl)c1/C=C1\\SC(=S)N(CCCCCC(=O)O)C1=O",
    "answer_label": "no"
  },
  {
    "molecule": "COc1cc2c(cc1OC)C(c1cccs1)N(C(=O)C(C)C)CC2 (centres undefined)",
    "answer_label": "no"
  },
  {
    "molecule": "O=C1C=C(c2ccccc2Oc2ccccc2)C[C@@H](c2ccc3c(c2)OCO3)C1",
    "answer_label": "no"
  },
  {
    "molecule": "Cc1cc2ccccn2c1C(=O)c1cccc(F)c1",
    "answer_label": "no"
  },
  {
    "molecule": "CCN1C(=O)C(=CC=CN(C)c2ccccc2)SC1=S",
    "answer_label": "no"
  },
  {
    "molecule": "Cc1nc(Nc2ccc(S(=O)(=O)N3CCCCC3C)cc2)c2nnn(Cc3ccccc3)c2n1 (centres undefined)",
    "answer_label": "no"
  },
  {
    "molecule": "COc1ccc(N=Cc2sc(O)c3ccccc23)cc1",
    "answer_label": "no"
  },
  {
    "molecule": "CCc1ccc(N=Nc2ccc(O)c3[nH]cnc23)cc1",
    "answer_label": "no"
  },
  {
    "molecule": "Cc1ccccc1CN(C)CC(=O)Nc1c(C)cccc1C(C)C",
    "answer_label": "no"
  },
  {
    "molecule": "COc1ccc(Oc2cn[nH]c2-c2ccc(OC)cc2O)cc1",
    "answer_label": "no"
  },
  {
    "molecule": "O=C(CNC(=O)c1sc2ccccc2c1Cl)NCc1cccc(C(F)(F)F)c1",
    "answer_label": "no"
  },
  {
    "molecule": "COc1ccc(Cl)cc1-n1c(=S)sc2c(=O)[nH]c(SCC(=O)NCCC(C)C)nc21",
    "answer_label": "no"
  },
  {
    "molecule": "O=C(OCCN1C(=O)c2cccc3c(N4CCOCC4)ccc(c23)C1=O)c1ccccc1Cl",
    "answer_label": "no"
  },
  {
    "molecule": "O=C(O)CSc1cc(C(=O)c2ccccc2O)cn2c(=O)c3c(-c4ccccc4)csc3nc12",
    "answer_label": "no"
  },
  {
    "molecule": "Cc1ccc(N2C(=O)c3cccc4c(N)ccc(c34)C2=O)c2cccnc12",
    "answer_label": "no"
  },
  {
    "molecule": "COc1ccc(C2CC(c3cccs3)=NN2c2ccc(C=O)cc2)cc1 (centres undefined)",
    "answer_label": "no"
  },
  {
    "molecule": "O=C(CCl)N1c2ccccc2Oc2ccc3ccccc3c21",
    "answer_label": "no"
  },
  {
    "molecule": "COc1ccc(N=Nc2nc3cc(Br)c(Br)cc3n2C)c(OC)c1",
    "answer_label": "no"
  },
  {
    "molecule": "O=C(CSC1=NCCS1)N1N=C(c2cccs2)CC1c1ccc(F)cc1 (centres undefined)",
    "answer_label": "no"
  },
  {
    "molecule": "O=C(Nc1ccc(S(=O)(=O)Nc2nccs2)cc1)c1cc(-c2ccccn2)nc2ccccc12",
    "answer_label": "no"
  },
  {
    "molecule": "COC(=O)CN1C(=S)N(c2ccc(OC)cc2)C(=O)/C1=C/c1ccc(N2CCOCC2)cc1",
    "answer_label": "yes"
  },
  {
    "molecule": "CC1=NCCN1S(=O)(=O)c1c(C(C)C)cc(C(C)C)cc1C(C)C",
    "answer_label": "no"
  },
  {
    "molecule": "Nc1ccc2c(O)cc(S(=O)(=O)O)cc2c1",
    "answer_label": "no"
  },
  {
    "molecule": "O=C1CCC(C(=O)Nc2ccccc2N2CCCC2)=NN1",
    "answer_label": "no"
  }
]
